Catalogue of apparent Kd readings, one per entry.
# Tested on: MS2 coat protein
# assayOverview: apparent Kd, MS2 coat protein; higher = weaker binding; RNA-MaP array; FMN 200 µM where present
# measurementParameters: ligand present: flavin mononucleotide; designed as: OFF switch for flavin mononucleotide

See these solved cases before continuing.
1) GGAUUACAUGAGGAUCACCCAUGUGAGGAUAUCGAUGUCCCUUGGCGCGUGCGGGACUCGAGAAGGCACUUGGA    248 nM
2) UGUAUGGACAGAGGAUAUACGGAUAGGAUCUACUAUCUUCCUUAAAUAACAUGAGGAUCACCCAUGUAGAAGGCUGUCCAUACU    74.7 nM
3) CGCAUAUAUGUAAGGAUAUCUGCUUCGCAGAGGCAAGAGAAGGUACAUGAGGAUCACCCAUGUAUUUAAGGCGG    25.6 nM
4) AAAAAGGGAGGAUAUACAUGAGGAUCACCCAUGUAAAAAAAAACAAAAAAAAAAAAAAGUAGAAGGCCCAAAAA    47.8 nM
5) GGUUGGCGAGGAUAUACAUGAGGAUCACCCAUGUGGUCCUGUGGCUGAUCUUGCCUUUGUAGAAGGCGCAAAUC    37.8 nM

**Query** Identify the measured apparent Kd of `CCGUCAAUCGAGAAGGGCCUAUGUGCUACAUCGGCAGGAUAUCGACAUGAGGAUCACCCAUGUUGGCGAUCCUUUUUGGCGGAC` for MS2 coat protein.
**Result** 24.1 nM

**Query** Identify the measured apparent Kd of `CCGCUGUUAGGAUAUCUGAAGCUUCAAUGGAAGUCUUCAUUGGAGAAGGGACAUGAGGAUCACCCAUGUAGGGA` for MS2 coat protein.
**Result** 253 nM

----------
Catalogue of apparent Kd readings, one per entry.
# Test system: MS2 coat protein
# assayOverview: apparent Kd, MS2 coat protein; higher = weaker binding; RNA-MaP array
# measurementParameters: ligand present: flavin mononucleotide; designed as: ON switch for flavin mononucleotide
Field: numeric (nM). Do not append units.

See these solved cases before continuing.
1) CAAGUAGUGGCAUUAACAUGAGGAUCACCCAUGUUGUGCGUCAGAAGGGCUCUAAUGGAUAACCAGCAGGAUAUGAUUUUCAUC    6.89
2) CUCAUGAGGAAGAAGGAUUAGGUCAGUGCAGUAAUAGGAUAUUCGUAACACAUGAGGAUCACCCAUGUCUACUCCGGAGCGACA    81.1
3) ACUACAUGCGAAUACAUGAGGAUCACCCAUGUCCAUAAGACCUAGGAUAUCCAGUAACCCUGCAAGGAGAAGGAGGAGAGCACU    19.6
4) UGUAGCCGCGAGAAGGUAAGCUAAGGAUGUGGUAUCAACGACUACAUGAGGAUCACCCAUGUGCUUAAGGAUAUCGAGGUGGAG    104
5) UGGAUUCGACAAGGAUAUGGUAGUCAUAGCACAUGAGGAUCACCCAUGUUAAAGCAAAACAAAGUCCAGAAGGUGUAAGUACGG    9.43

**Query** So what's the measured apparent Kd for this one? `CCAGGGCUCGAGAAGGCCCGCGCGGUUCAGUACGUAGGUACAUGAGGAUCACCCAUGUCGGAUUGGGAGGAUAUCGAUUCUUGU`
**Result** 80.1

**Query** So what's the measured apparent Kd for this one? `GCAUGGACAUGAGGAUCACCCAUGUGUCGCCCUGGACCCGUUAGAAGGCCGUUCCAGAGAACAACGGAGGAUAUAAUUACAGCC`
**Result** 27

----------
Catalogue of apparent Kd readings, one per entry.
# System: MS2 coat protein
# assayOverview: apparent Kd, MS2 coat protein; higher = weaker binding; RNA-MaP array
# measurementParameters: designed as: ON switch for tryptophan; no ligand
Field: numeric (nM). Do not append units.

1) GUACACAUGAGGAUCACCCAUGUACUGGUACGAGGACCGGUACGGCCGCCACUCGCCGAGAUUCAUAACACAUCAGAAAGCUCAC    17.6
2) UAUCGCGCGGCGGCCGCCACUAAUGGCAGAUCUGUCGACUAACAUGAGGAUCACCCAUGUCUAACUAGGACCGGGCCCAAGUUGU    47.5
3) UCAAUACAGUCGGCCGCCACUGUAACCAAACCUACAUACCAACAUGAGGAUCACCCAUGUUUAUACAGGACCGGGACCUCUAUGA    36.6

**Query** Identify the measured apparent Kd of `ACGCACAUGAGGAUCACCCAUGUGAACCUACGAGGACCGGUACGGCCGCCACUCGCUGUUCCUACCGGCUUAAUUGUCACUGGGU` for MS2 coat protein.
**Result** 36.5

----------
# System: MS2 coat protein
# assayOverview: apparent Kd, MS2 coat protein; higher = weaker binding; RNA-MaP array; theophylline 2 mM where present
# measurementParameters: designed as: OFF switch for theophylline; no ligand
// thresholds for apparent Kd classes: band A = under 20 nM, band B = from 20 nM up to 100 nM, band C = 100 nM and over

Recorded results for 10 sequences are shown here.
1. UCAUUUGAGUGAGAUGUAAGGUAUCAUGAUACCAGUAGAUAAUUAUACCCUUGGCAGCAUAACAUGAGGAUCACCCAUGUACAUG    band B
2. GAUGAUAUUGCAGAUACCAGACACAUGAGGAUCACCCAUGUCGCUGGGUUACUGGAUCGUGUCCCUUGGCAGCUGCGAUAUCAUC    band C
3. AGCUCAGAGAGUGAUACCAGACUACAUGAGGAUCACCCAUGUUACUUUUAAAUAUCAUGAGUCCCUUGGCAGCACAAGAAGAGCA    band B
4. UCUUUCUAUAGUGAUACCAGACGUACAUGAGGAUCACCCAUGUUACAUUCUUGGUUAAAAGUCCCUUGGCAGCACGAUUUGUUCG    band A
5. ACAUGAGGAUCACCCAUGUUCCUCAUUGAUACCAGUGAAUUUAGACGCCCUUGGCAGCGAGUUUUUUUAUAAGAAGUUUUUUUUU    band C
6. CUUAUAGUAACUGAUACCAGUGUACUGACAUGAGGAUCACCCAUGUUGGGUUUUGUUGUACACCCUUGGCAGCAGAAUCUAUAAG    band B
7. AUUAUCAUGGUCAUAUAUAUUUCGUCAGAUACCAGACUAGAUAUAGUCCCUUGGCAGCUGUUACAUGAGGAUCACCCAUGUUAUU    band C
8. ACUAGCGCACAUGAUACCAGCGACAUGAGGAUCACCCAUGUACGGCGUGUAUCGAAAGGUUGCCCUUGGCAGCAUGAUAGCGCUG    band A
9. AAGCUGACAAGAAGGUGUUCCUAAGCUGAUACCAGCCUGGAAACAGGCCCUUGGCAGCAGCACAUGAGGAUCACCCAUGUAAUAA    band C
10. GAGCUGAUGUAGAAAUUUUAUUUAUGAGAUACCAGUACAGAAAUGUACCCUUGGCAGCUCAUUUUUACAUGAGGAUCACCCAUGU    band A

**Query** Hey, which category is `AAACGUUGCUGCGAUACCAGACAUGAGGAUCACCCAUGUACCAAGGUAAGAAAAUAACAUGUCCCUUGGCAGCGCAGCAACGAAA` in, do you know?
**Result** band A

**Query** Hey, which category is `UAUAGUGUGAUGGAUACCAGCAGAGAAAACGUUUAUCCUAACAUGAGGAUCACCCAUGUAUGCCCUUGGCAGCUGUUGUGUUAUA` in, do you know?
**Result** band B

**Query** Hey, which category is `GAUGAACUAUUUGAUACCAGACUACAUGAGGAUCACCCAUGUGAGUUUCGUCCUCUGCCAGUCCCUUGGCAGCAAAUAGUUUAUC` in, do you know?
**Result** band A

----------
Catalogue of apparent Kd readings, one per entry.
# System: MS2 coat protein
# assayOverview: apparent Kd, MS2 coat protein; higher = weaker binding; RNA-MaP array; FMN 200 µM where present
# measurementParameters: ligand present: flavin mononucleotide; designed as: OFF switch for flavin mononucleotide

1) AAACCGUGUGGAGGAUAUGCAGUUGAGGUGAGGCGGCAGCUCUAUACGACAGCAGAAGGCCACAUGAGGAUCACCCAUGUAGGU    326 nM
2) AAAAAACAUGAGGAUCACCCAUGUCAGGAUAUCUGGAGAAACGGAAAGAAAAAGAAACGGAGAAGGGACAUAAA    48 nM
3) GGUGUGAGGCAGGAUAUGCUAUAUGUUAGUAAUGCAGAAGGGUCUACAUGAGGAUCACCCAUGUGUGCGGUUGA    394 nM
4) ACGACGAAAGUCGAACGAUGUACGAGAAGGACAUGAGGAUCACCCAUGUUAUCUGUUAUAGACAUGUAGGAUAUCGUACAUCGA    26.8 nM

Kindly consider the entry below.
**Query** So what's the measured apparent Kd for this one? `UUUUGAAAGUGAGGAUAUGACAUGAGGAUCACCCAUGUAAAGGGAGUUGAAUAUAUAGAAAGAUAUCAGAAGGCACAAAUGUUU`
**Result** 497 nM
